Experiment: CC50 assay (CellTiter-Glo) in Huh-7 HCV replicon cells
Assay type: cell-based, human
Settings: human, 3 days incubation, 50% cytostatic concentration
Here the recorded CC50 at 3 days is given for each entry.

Solved entries (count: 3):
[[record]]
mol_smiles = "Nc1nc(OCC2CC2)c2nc(-c3ccc(F)cc3)cnc2n1"
measured_property = "CC50 at 3 days"
assay_value = "> 20 µM"

[[record]]
mol_smiles = "Nc1nc(N2CCOCC2)c2nc(-c3ccc(C(F)(F)F)cc3Cl)cnc2n1"
measured_property = "CC50 at 3 days"
assay_value = "10 to 20 µM"

[[record]]
mol_smiles = "CCOc1nc(N)nc2ncc(-c3ccc(N)cc3)nc12"
measured_property = "CC50 at 3 days"
assay_value = "> 20 µM"


The compound listed as "Nc1nc(N)c2nc(-c3cccc(F)c3F)cnc2n1" shows CC50 at 3 days equal to 10 to 20 µM

"Nc1nc(N2CCOCC2)c2nc(-c3cccc(Cl)c3Cl)cnc2n1" has a reported CC50 at 3 days of > 20 µM

Memo: "CC(C)(O)CCOc1nc(N)nc2ncc(-c3ccc(F)cc3)nc12" , reported CC50 at 3 days: > 20 µM

====

Parameter: EC50. Scope: all listed entries.
Target: HCV replicon
Assay: Anti-HCV replicon assay (EC50, luciferase readout)
Type: cell-based, hepatitis C virus
Details: human hepatoma Huh-7 cell line harbouring a HCV replicon; 3 days incubation; luciferase signal; read-out: EC50

What the record says about Nc1nc(N2CCOCC2)c2nc(-c3ccc(OC(F)(F)F)cc3)cnc2n1 [Example 86] : EC50 is 300 to 1000 nM

For Nc1nc(N2CCOCC2)c2nc(-c3ccc(NC(=O)C4CC4)cc3)cnc2n1 [Example 142] the compound record lists EC50 as 300 to 1000 nM

====

Tested on: HCV replicon
Assay: Anti-HCV replicon assay (EC50, luciferase readout)
Assay type: cell-based, hepatitis C virus
Conditions: Hepatitis C virus, 72 h; human hepatoma Huh-7 cell line harbouring a HCV replicon; 3 days incubation; luciferase signal; read-out: EC50
Measured property: EC50

[[record]]
molecule = "COc1ccc(-c2cnc3nc(N)nc(N4CCOCC4)c3n2)cn1 [Example 130]"
target_or_system = "HCV replicon"
assay_value = "1000 to 10000 nM"


Sample CCOc1nc(N)nc2ncc(-c3ccc(C)cc3)nc12 [Example 54, 4-ethoxy-6-p-tolylpteridin-2-ylamine] ; EC50 observed: 1000 to 10000 nM

Per the records, this molecule ( Nc1nc(N2CCOCC2)c2nc(-c3cccc(OC(F)(F)F)c3)cnc2n1 [Example 84] ) has EC50 equal to < 300 nM

Memo: CCOc1cccc(-c2cnc3nc(N)nc(N4CCOCC4)c3n2)c1 [Example 126] , reported EC50: 1000 to 10000 nM

Entry COc1nc(N)nc2ncc(-c3ccc(F)cc3)nc12 [Example 149] , EC50 reported as 300 to 1000 nM

====

Listed below: EC50 values for each entry.
Tested on: HCV replicon
Experiment: Anti-HCV replicon assay (EC50, luciferase readout)
Type: cell-based, hepatitis C virus
Details: human hepatoma Huh-7 cell line harbouring a HCV replicon; 3 days incubation; luciferase signal

[[record]]
molecule = "Nc1nc(N2CCOCC2)c2nc(-c3cccc(F)c3F)cnc2n1 [Example 90]"
target_or_system = "HCV replicon"
measured_property = "EC50"
assay_value = "300 to 1000 nM"


For reference, reported EC50 for Nc1nc(N2CCOCC2)c2nc(-c3cccc(F)c3F)cnc2n1 [Example 113] stands at 1000 to 10000 nM

====

Test system: HCV replicon
Experiment: Anti-HCV replicon assay (EC50, luciferase readout)
Type: cell-based, hepatitis C virus
Settings: Hepatitis C virus, 72 h; human hepatoma Huh-7 cell line harbouring a HCV replicon; 3 days incubation; luciferase signal; read-out: EC50
pEC50: −log10 of the molar value.
Measured property: pEC50

[[record]]
mol_smiles = "Nc1nc(N2CCOCC2)c2nc(-c3ccn[nH]3)cnc2n1"
target_or_system = "HCV replicon"
assay_value = "5.00 to 6.00"

[[record]]
mol_smiles = "Nc1nc(N2CCOCC2)c2nc(-c3ccc(NC(=O)[C@@H](N)CO)cc3)cnc2n1"
target_or_system = "HCV replicon"
assay_value = "5.00 to 6.00"


Entry "CC(C)(C)C(=O)Nc1ccc(-c2cnc3nc(N)nc(N4CCOCC4)c3n2)cc1" ; pEC50 = 5.00 to 6.00

response.value for "CCCCOc1nc(N)nc2ncc(-c3ccc(F)cc3)nc12" (field: pEC50) = 5.00 to 6.00

Looking up "Nc1nc(N2CCOCC2)c2nc(-c3ccc(CN4CCOCC4)cc3)cnc2n1" , I found its pEC50 recorded as 5.00 to 6.00

====

Test: CC50 assay (CellTiter-Glo) in Huh-7 HCV replicon cells
Assay type: cell-based, human
Conditions: human, 3 days incubation, 50% cytostatic concentration
Measured property: CC50 at 3 days

The cases that follow already have their CC50 at 3 days on record.
[[record]]
compound = "CCOc1nc(N)nc2ncc(-c3ccc(O)cc3)nc12 [Example 57, 4-(2-amino-4-ethoxypteridin-6-yl)phenol]"
measured_property = "CC50 at 3 days"
assay_value = "> 20 µM"

[[record]]
compound = "Nc1nc(N2CCOCC2)c2nc(-c3cc4ccccc4o3)cnc2n1 [Example 133]"
measured_property = "CC50 at 3 days"
assay_value = "> 20 µM"

[[record]]
compound = "CC(C)(C)C(=O)Nc1ccc(-c2cnc3nc(N)nc(N4CCOCC4)c3n2)cc1 [Example 138]"
measured_property = "CC50 at 3 days"
assay_value = "10 to 20 µM"


Documented CC50 at 3 days of CCOc1nc(N)nc2ncc(-c3ccc(Cl)cc3)nc12 [Example 27] : < 10 µM

Sample CC(C)C(=O)Nc1ccc(-c2cnc3nc(N)nc(N4CCOCC4)c3n2)cc1 [Example 137] ; CC50 at 3 days observed: 10 to 20 µM

The reported CC50 at 3 days of the compound Nc1nc(N2CCOCC2)c2nc(-c3ccc4c(c3)CC(=O)N4)cnc2n1 [Example 136] was 10 to 20 µM

Just so you know, measured CC50 at 3 days for Nc1nc(N2CCOCC2)c2nc(-c3ccsc3)cnc2n1 [Example 110] came out at > 20 µM

Reported CC50 at 3 days for CCOc1nc(N)nc2ncc(-c3ccc(C)cc3)nc12 [Example 54, 4-ethoxy-6-p-tolylpteridin-2-ylamine] was > 20 µM

For this compound ( Nc1nc(N2CCOCC2)c2nc(-c3ccoc3)cnc2n1 [Example 111] ), measured CC50 at 3 days is > 20 µM

====

Catalogue of compounds with associated CC50
Tested on: Huh-7 HCV replicon cells
Assay: CC50 assay (CellTiter-Glo) in Huh-7 HCV replicon cells
Assay type: cell-based, human
Conditions: 3 days incubation, 50% cytostatic concentration

[[record]]
compound = "Nc1nc(N2CCOCC2)c2nc(-c3ccc(NC(=O)C4CC4)cc3)cnc2n1 [Example 142]"
measured_property = "CC50"
assay_value = "< 10 µM"


Result for Nc1nc(N2CCOCC2)c2nc(-c3cccc(F)c3F)cnc2n1 [Example 113] , tested on Huh-7 HCV replicon cells, CC50: > 20 µM

The recorded CC50 with Huh-7 HCV replicon cells for Nc1nc(N2CCOCC2)c2nc(-c3ccc(OC(F)(F)F)cc3)cnc2n1 [Example 86] was 10 to 20 µM

====

Tested on: HCV replicon
Test: Anti-HCV replicon assay (EC50, luciferase readout)
Format: cell-based, hepatitis C virus
Details: Hepatitis C virus, 72 h; human hepatoma Huh-7 cell line harbouring a HCV replicon; 3 days incubation; luciferase signal; read-out: EC50
Measured property: EC50

[[record]]
mol_smiles = "Nc1nc(N2CCOCC2)c2nc(-c3cccnc3)cnc2n1"
target_or_system = "HCV replicon"
assay_value = "300 to 1000 nM"


Given item "C[C@H](N)C(=O)Nc1ccc(-c2cnc3nc(N)nc(N4CCOCC4)c3n2)cc1" , the value recorded as its EC50 is 300 to 1000 nM

Consider "Nc1nc(N2CCOCC2)c2nc(-c3cc4ccccc4o3)cnc2n1" . Its measured EC50 is 300 to 1000 nM

// EC50 value for "Cc1cc(F)ccc1-c1cnc2nc(N)nc(N3CCOCC3)c2n1" : 1000 to 10000 nM

Measured EC50 of "CC(C)C(=O)Nc1ccc(-c2cnc3nc(N)nc(N4CCOCC4)c3n2)cc1" : < 300 nM

Record summary for "Nc1nc(N2CCOCC2)c2nc(-c3ccc4c(c3)CC(=O)N4)cnc2n1" : reported EC50 = 1000 to 10000 nM

The recorded EC50 for entry "Nc1nc(N)c2nc(-c3cccc(F)c3F)cnc2n1" equals 1000 to 10000 nM

For record "CCCOc1nc(N)nc2ncc(-c3ccc(F)cc3)nc12" the listed EC50 is 1000 to 10000 nM

Entry "CC(C)Oc1nc(N)nc2ncc(-c3ccc(F)cc3)nc12" ; EC50 = < 300 nM
